Reported Kd values for the following binders.
Target: T1, human GM-CSF (human, UniProt P04141 18-144)
T1 construct: mature; the preparation is named under assay or readout; also called hGM-CSF; recombinant human GM-CSF
T1 sequence (P04141 18-144): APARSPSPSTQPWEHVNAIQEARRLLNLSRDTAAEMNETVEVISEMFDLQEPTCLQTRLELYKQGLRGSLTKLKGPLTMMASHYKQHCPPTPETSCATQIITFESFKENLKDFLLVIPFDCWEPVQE
Test: solution equilibrium titration (SET, ECL/BioVeris), Fab with human GM-CSF (Leucomax) in solution
State just the number; it will be interpreted in nM.

Examples from the recorded data:
MOR04287 Fab (Fab, V domains shown, Fab with FLAG and 6xHis tags) VH: QVQLVESGGGLVQPGGSLRLSCAASGFTFSSYWMNWVRQAPGKGLEWVSGIENKRAGGATFYAASVKGRFTISRDNSKNTLYLQMNSLRAEDTAVYYCARGFGTDFWGQGTLVTVSS VL: DIELTQPPSVSVAPGQTARISCSGDSIGKKYAYWYQQKPGQAPVLVIYKKRPSGIPERFSGSNSGNTATLTISGTQAEDEADYYCSSWDSTGLVFGGGTKLTVLG: 0.0179
MOR04302 Fab (Fab, V domains shown, Fab with FLAG and 6xHis tags) VH: QVQLVESGGGLVQPGGSLRLSCAASGFTFSSYWMNWVRQAPGKGLEWVSGISYSGSETYYADSVKGRFTISRDNSKNTLYLQMNSLRAEDTAVYYCARGFGTDFWGQGTLVTVSS VL: DIELTQPPSVSVAPGQTARISCSGDSIGKKYAYWYQQKPGQAPVLVIYKKRPSGIPERFSGSNSGNTATLTISGTQAEDEADYYCSAWGDKGMVFGGGTKLTVLG: 0.0635
MOR04342 Fab (Fab, V domains shown, X-cloned Fab (VH of MOR04283 x VL of MOR04297) with FLAG and 6xHis tags) VH: QVQLVQSGAEVKKPGSSVKVSCKASGGTFNSFLISWVRQAPGQGLEWMGAISPWDGVTGYAQKFQGRVTITADESTSTAYMELSSLRSEDTAVYYCARKFISDSWGQGTLVTVSS VL: DIQMTQSPSSLSASVGDRVTITCRASQTINNYLNWYQQKPGKAPKLLIYTASNLQSGVPSRFSGSGSGTDFTLTISSLQPEDFATYYCQQYSWVPHTFGQGTKVEIKR: 0.0049
MOR03929 Fab (Fab, V domains shown, Parental HuCAL GOLD Fab with C-terminal FLAG and 6xHis tags) VH: QVQLVESGGGLVQPGGSLRLSCAASGFTFSSYWMNWVRQAPGKGLEWVSGISYSGSETYYADSVKGRFTISRDNSKNTLYLQMNSLRAEDTAVYYCARGFGTDFWGQGTLVTVSS VL: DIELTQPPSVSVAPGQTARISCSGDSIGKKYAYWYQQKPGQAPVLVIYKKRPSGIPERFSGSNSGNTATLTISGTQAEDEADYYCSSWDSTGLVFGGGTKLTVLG: 2
MOR04354 Fab (Fab, V domains shown, X-cloned Fab (VH of MOR04290 x VL of MOR04302) with FLAG and 6xHis tags) VH: QVQLVESGGGLVQPGGSLRLSCAASGFTFSSYWMNWVRQAPGKGLEWVSGIESKWAGGATYYAAGVKGRFTISRDNSKNTLYLQMNSLRAEDTAVYYCARGFGTDFWGQGTLVTVSS VL: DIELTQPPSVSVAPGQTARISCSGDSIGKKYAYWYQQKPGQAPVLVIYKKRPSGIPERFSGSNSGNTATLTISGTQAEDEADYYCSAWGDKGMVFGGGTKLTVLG: 0.0028

Qu. Give the measured Kd of MOR04251 Fab (Fab, V domains shown) VH: QVQLVESGGGLVQPGGSLRLSCAASGFTFSSHWMSWVRQAPGKGLEWVSNIWRGPYIYYADSVKGRFTISRDNSKNTLYLQMNSLRAEDTAVYYCARFQGYGGGFDYWGQGTLVTVSS VL: DIELTQPPSVSVAPGQTARISCSGDNLPGKYVHWYQQKPGQAPVLVIYYDSNRPSGIPERFSGSNSGNTATLTISGTQAEDEADYYCQSRTQTTIVFGGGTKLTVLG .
Ans. 0.0074

Qu. Give the measured Kd of MOR04350 Fab (Fab, V domains shown, X-cloned Fab (VH of MOR04287 x VL of MOR04302) with FLAG and 6xHis tags) VH: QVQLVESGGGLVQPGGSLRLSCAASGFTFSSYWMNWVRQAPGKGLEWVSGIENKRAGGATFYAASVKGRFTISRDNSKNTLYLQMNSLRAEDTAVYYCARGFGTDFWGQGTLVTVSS VL: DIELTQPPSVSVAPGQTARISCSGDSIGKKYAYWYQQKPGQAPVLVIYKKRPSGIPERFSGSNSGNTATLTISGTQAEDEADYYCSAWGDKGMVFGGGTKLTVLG .
Ans. 0.0011

Each recorded value in this set is attributed to patent US20090053213A1.
